test: Micafungin concentrations in cerebrospinal fluid of infants with Candida meningitis (HPLC); type: in vivo; conditions: human, CSF (ratio to plasma), iv, 7 mg/kg/day, Patient 1, dose 7 mg/kg/day iv; read-out: CSF/plasma ratio after 8 h
*1 amine or outer side, *2 acyl side, *3 side chain or, on linkers, in order; H or OH if unused. Where a SMILES comes first, the peptide text is derived from it. Bridges are numbered along the chain shown (N, C = ends). [ ]: non-standard residue; d: D form. The star is where a group is joined. hTyr(3S-OH,4S-OH,3'-OSO3H) = N[C@H](C(=O)O)[C@H](O)[C@@H](O)c1ccc(O)c(OS(=O)(=O)O)c1; Orn(4R-OH,5R-OH) = O=C([C@H](C[C@@H](O)[C@@H](O)N[*:3])N[*:1])[*:2]; Pro(3S-OH,4S-Me) = C[C@H]1CN[C@H](C(=O)O)[C@H]1O; X1 = CCCCCOc1ccc(-c2cc(-c3ccc(C(=O)*)cc3)no2)cc1; Gln(3R-OH) = NC(=O)C[C@@H](O)[C@H](N)C(=O)O; Hyp = O=C(O)[C@@H]1C[C@@H](O)CN1
READOUT_TYPE: Kp at 8 h

Identify the reported Kp at 8 h for the following entry. CCCCCOc1ccc(-c2cc(-c3ccc(C(=O)N[C@H]4C[C@@H](O)[C@@H](O)NC(=O)[C@@H]5[C@@H](O)[C@@H](C)CN5C(=O)[C@H]([C@H](O)CC(N)=O)NC(=O)[C@H]([C@H](O)[C@@H](O)c5ccc(O)c(OS(=O)(=O)O)c5)NC(=O)[C@@H]5C[C@@H](O)CN5C(=O)[C@H]([C@@H](C)O)NC4=O)cc3)no2)cc1 [micafungin] (X1-[Orn(4R-OH,5R-OH)]T[Hyp][hTyr(3S-OH,4S-OH,3'-OSO3H)][Gln(3R-OH)][Pro(3S-OH,4S-Me)]; lactam 1-C)
0.02

* * *

assay: Micafungin plasma pharmacokinetics in neonates and young infants (HPLC); format: in vivo, human; details: human, iv, 8 mg/kg/day, Patient 3, dose 8 mg/kg/day iv, HPLC, read-out: Plasma values before infusion
*1 amine or outer side, *2 acyl side, *3 side chain or, on linkers, in order; H or OH if unused. Where a SMILES comes first, the peptide text is derived from it. Bridges are numbered along the chain shown (N, C = ends). [ ]: non-standard residue; d: D form. The star is where a group is joined. hTyr(3S-OH,4S-OH,3'-OSO3H) = N[C@H](C(=O)O)[C@H](O)[C@@H](O)c1ccc(O)c(OS(=O)(=O)O)c1; Orn(4R-OH,5R-OH) = O=C([C@H](C[C@@H](O)[C@@H](O)N[*:3])N[*:1])[*:2]; Pro(3S-OH,4S-Me) = C[C@H]1CN[C@H](C(=O)O)[C@H]1O; X1 = CCCCCOc1ccc(-c2cc(-c3ccc(C(=O)*)cc3)no2)cc1; Gln(3R-OH) = NC(=O)C[C@@H](O)[C@H](N)C(=O)O; Hyp = O=C(O)[C@@H]1C[C@@H](O)CN1
READOUT_TYPE: level at -1 h (ng/mL)
I only need the number, in ng/mL, no unit after it.

Identify the reported level at -1 h for the following entry. CCCCCOc1ccc(-c2cc(-c3ccc(C(=O)N[C@H]4C[C@@H](O)[C@@H](O)NC(=O)[C@@H]5[C@@H](O)[C@@H](C)CN5C(=O)[C@H]([C@H](O)CC(N)=O)NC(=O)[C@H]([C@H](O)[C@@H](O)c5ccc(O)c(OS(=O)(=O)O)c5)NC(=O)[C@@H]5C[C@@H](O)CN5C(=O)[C@H]([C@@H](C)O)NC4=O)cc3)no2)cc1 [micafungin] (X1-[Orn(4R-OH,5R-OH)]T[Hyp][hTyr(3S-OH,4S-OH,3'-OSO3H)][Gln(3R-OH)][Pro(3S-OH,4S-Me)]; lactam 1-C)
9120

* * *

experiment: Micafungin plasma pharmacokinetics in neonates and young infants (HPLC); type: in vivo, human; conditions: human, iv, 10 mg/kg/day, Patient 2, dose 10 mg/kg/day iv, HPLC, read-out: Plasma values after 8 h
*1 amine or outer side, *2 acyl side, *3 side chain or, on linkers, in order; H or OH if unused. Where a SMILES comes first, the peptide text is derived from it. Bridges are numbered along the chain shown (N, C = ends). [ ]: non-standard residue; d: D form. The star is where a group is joined. hTyr(3S-OH,4S-OH,3'-OSO3H) = N[C@H](C(=O)O)[C@H](O)[C@@H](O)c1ccc(O)c(OS(=O)(=O)O)c1; Orn(4R-OH,5R-OH) = O=C([C@H](C[C@@H](O)[C@@H](O)N[*:3])N[*:1])[*:2]; Pro(3S-OH,4S-Me) = C[C@H]1CN[C@H](C(=O)O)[C@H]1O; X1 = CCCCCOc1ccc(-c2cc(-c3ccc(C(=O)*)cc3)no2)cc1; Gln(3R-OH) = NC(=O)C[C@@H](O)[C@H](N)C(=O)O; Hyp = O=C(O)[C@@H]1C[C@@H](O)CN1
READOUT_TYPE: level at 8 h (ng/mL)
I only need the number, in ng/mL, no unit after it.

Identify the reported level at 8 h for the following entry. CCCCCOc1ccc(-c2cc(-c3ccc(C(=O)N[C@H]4C[C@@H](O)[C@@H](O)NC(=O)[C@@H]5[C@@H](O)[C@@H](C)CN5C(=O)[C@H]([C@H](O)CC(N)=O)NC(=O)[C@H]([C@H](O)[C@@H](O)c5ccc(O)c(OS(=O)(=O)O)c5)NC(=O)[C@@H]5C[C@@H](O)CN5C(=O)[C@H]([C@@H](C)O)NC4=O)cc3)no2)cc1 [micafungin] (X1-[Orn(4R-OH,5R-OH)]T[Hyp][hTyr(3S-OH,4S-OH,3'-OSO3H)][Gln(3R-OH)][Pro(3S-OH,4S-Me)]; lactam 1-C)
8900

* * *

assay: Micafungin concentrations in cerebrospinal fluid of infants with Candida meningitis (HPLC); format: in vivo; settings: human, CSF (ratio to plasma), iv, 10 mg/kg/day, Patient 2, dose 10 mg/kg/day iv; read-out: CSF/plasma ratio after 8 h
*1 amine or outer side, *2 acyl side, *3 side chain or, on linkers, in order; H or OH if unused. Where a SMILES comes first, the peptide text is derived from it. Bridges are numbered along the chain shown (N, C = ends). [ ]: non-standard residue; d: D form. The star is where a group is joined. hTyr(3S-OH,4S-OH,3'-OSO3H) = N[C@H](C(=O)O)[C@H](O)[C@@H](O)c1ccc(O)c(OS(=O)(=O)O)c1; Orn(4R-OH,5R-OH) = O=C([C@H](C[C@@H](O)[C@@H](O)N[*:3])N[*:1])[*:2]; Pro(3S-OH,4S-Me) = C[C@H]1CN[C@H](C(=O)O)[C@H]1O; X1 = CCCCCOc1ccc(-c2cc(-c3ccc(C(=O)*)cc3)no2)cc1; Gln(3R-OH) = NC(=O)C[C@@H](O)[C@H](N)C(=O)O; Hyp = O=C(O)[C@@H]1C[C@@H](O)CN1
READOUT_TYPE: Kp at 8 h
Please give only the number in your answer, with no unit.

Identify the reported Kp at 8 h for the following entry. CCCCCOc1ccc(-c2cc(-c3ccc(C(=O)N[C@H]4C[C@@H](O)[C@@H](O)NC(=O)[C@@H]5[C@@H](O)[C@@H](C)CN5C(=O)[C@H]([C@H](O)CC(N)=O)NC(=O)[C@H]([C@H](O)[C@@H](O)c5ccc(O)c(OS(=O)(=O)O)c5)NC(=O)[C@@H]5C[C@@H](O)CN5C(=O)[C@H]([C@@H](C)O)NC4=O)cc3)no2)cc1 [micafungin] (X1-[Orn(4R-OH,5R-OH)]T[Hyp][hTyr(3S-OH,4S-OH,3'-OSO3H)][Gln(3R-OH)][Pro(3S-OH,4S-Me)]; lactam 1-C)
0.03

* * *

experiment: Micafungin concentrations in cerebrospinal fluid of infants with Candida meningitis (HPLC); type: in vivo; details: human, CSF (ratio to plasma), iv, 15 mg/kg/day, Patient 2, dose 15 mg/kg/day iv; read-out: CSF/plasma ratio after 1 h
*1 amine or outer side, *2 acyl side, *3 side chain or, on linkers, in order; H or OH if unused. Where a SMILES comes first, the peptide text is derived from it. Bridges are numbered along the chain shown (N, C = ends). [ ]: non-standard residue; d: D form. The star is where a group is joined. hTyr(3S-OH,4S-OH,3'-OSO3H) = N[C@H](C(=O)O)[C@H](O)[C@@H](O)c1ccc(O)c(OS(=O)(=O)O)c1; Orn(4R-OH,5R-OH) = O=C([C@H](C[C@@H](O)[C@@H](O)N[*:3])N[*:1])[*:2]; Pro(3S-OH,4S-Me) = C[C@H]1CN[C@H](C(=O)O)[C@H]1O; X1 = CCCCCOc1ccc(-c2cc(-c3ccc(C(=O)*)cc3)no2)cc1; Gln(3R-OH) = NC(=O)C[C@@H](O)[C@H](N)C(=O)O; Hyp = O=C(O)[C@@H]1C[C@@H](O)CN1
READOUT_TYPE: Kp at 1 h
Please give only the number in your answer, with no unit.

Identify the reported Kp at 1 h for the following entry. CCCCCOc1ccc(-c2cc(-c3ccc(C(=O)N[C@H]4C[C@@H](O)[C@@H](O)NC(=O)[C@@H]5[C@@H](O)[C@@H](C)CN5C(=O)[C@H]([C@H](O)CC(N)=O)NC(=O)[C@H]([C@H](O)[C@@H](O)c5ccc(O)c(OS(=O)(=O)O)c5)NC(=O)[C@@H]5C[C@@H](O)CN5C(=O)[C@H]([C@@H](C)O)NC4=O)cc3)no2)cc1 [micafungin] (X1-[Orn(4R-OH,5R-OH)]T[Hyp][hTyr(3S-OH,4S-OH,3'-OSO3H)][Gln(3R-OH)][Pro(3S-OH,4S-Me)]; lactam 1-C)
0.05
